- Species: Homo sapiens
- ASSAY_TEXT: To identify inhibition of the IFN signalling (Jak-Stat) pathway via expression of an eGFP reporter gene under the control of an IFN-stimulated response element (ISRE) containing MxA promoter.
- Assay type: functional
- Set-up: scale not given: direction of the effect not stated beside the values
- EXPERIMENTAL_PARAMETERS: 30 µM
READOUT_LABEL: Percent Effect (%)
Provide only the numeric value, understood in %.

Guide cases for Percent Effect, answers given:
CCc1ncnc2c1CCN(Cc1ccc(OC)cc1)CC2 = -6.35
COCCCN1CC2(CCCCN2C(=O)c2ccsc2)CC1=O (configuration not stated) = 15.2

Problem: Requested read-out: Percent Effect. Entry: CCCc1cc(CNC(=O)C2CCOc3ccccc3C2)on1 (configuration not stated)
Solution: 29.7

Problem: Lookup COCc1nc(C(=O)NS(=O)(=O)c2ccc(C)s2)cs1
Solution: 18.7

Problem: Lookup Cc1cc(C)n2cc(CN3CCCC3Cn3nc(C)nc3C)nc2n1 (configuration not stated)
Solution: 1.56

Problem: Lookup COCC1CC2(CCN(Cc3cnn(C)c3)CC2)CN1C(C)C (configuration not stated)
Solution: 2.36

Problem: Lookup Cc1nc(C)n(CC2CCCN2Cc2nc3ccccc3n2C)n1 (configuration not stated)
Solution: 8.44

====

- ASSAYED_TARGET: Tyrosyl-tRNA synthetase, putative (Trypanosoma cruzi (strain CL Brener))
- ASSAY_TEXT: Trypanosoma cruzi tyrosyl tRNA synthetase (TcYRS) _High Tyrosine SOP; also: in the data most compounds retested in dose-response had high values
- Type: functional
- Set-up: scale not given: direction of the effect not stated beside the values
- EXPERIMENTAL_PARAMETERS: 30 µM
Kindly note that classification relies on Percent Effect with these boundaries: low group = under 3%, middle group = from 3% up to 5%, high group = 5% and over

CS(=O)(=O)N1CCC(c2nnc3ccc(C(=O)N4CCCC4)cn23)C1 (stereo unspecified) = low group

Problem: Consider CCNC(=O)[C@@H]1C[C@@H](NC(=O)c2cccnc2O)CN1Cc1ccsc1 . To which Percent Effect class does it belong?
Solution: high group

Problem: Lookup COCC1CC2(CCN(Cc3ccc(OC)cc3)CC2)CN1C(C)C (stereo unspecified)
Solution: low group

Problem: Lookup CN(C)CC(=O)N1CCC2(CC(=O)N(c3cccc(C#N)c3)C2)C1 (stereo unspecified)
Solution: low group

Problem: Lookup COc1cccc2c1OCC(C(=O)N1CCC(N3CCOC3=O)CC1)C2 (stereo unspecified)
Solution: high group

Problem: Lookup CNc1nc(C2CCCN2C(C)=O)nc2c1CCN(CC1CC1)C2 (stereo unspecified)
Solution: middle group

====

- ASSAYED_TARGET: Tyrosyl-tRNA synthetase, putative (Trypanosoma cruzi (strain CL Brener)) (UniProt Q4DSP6)
- Sequence (whole entry): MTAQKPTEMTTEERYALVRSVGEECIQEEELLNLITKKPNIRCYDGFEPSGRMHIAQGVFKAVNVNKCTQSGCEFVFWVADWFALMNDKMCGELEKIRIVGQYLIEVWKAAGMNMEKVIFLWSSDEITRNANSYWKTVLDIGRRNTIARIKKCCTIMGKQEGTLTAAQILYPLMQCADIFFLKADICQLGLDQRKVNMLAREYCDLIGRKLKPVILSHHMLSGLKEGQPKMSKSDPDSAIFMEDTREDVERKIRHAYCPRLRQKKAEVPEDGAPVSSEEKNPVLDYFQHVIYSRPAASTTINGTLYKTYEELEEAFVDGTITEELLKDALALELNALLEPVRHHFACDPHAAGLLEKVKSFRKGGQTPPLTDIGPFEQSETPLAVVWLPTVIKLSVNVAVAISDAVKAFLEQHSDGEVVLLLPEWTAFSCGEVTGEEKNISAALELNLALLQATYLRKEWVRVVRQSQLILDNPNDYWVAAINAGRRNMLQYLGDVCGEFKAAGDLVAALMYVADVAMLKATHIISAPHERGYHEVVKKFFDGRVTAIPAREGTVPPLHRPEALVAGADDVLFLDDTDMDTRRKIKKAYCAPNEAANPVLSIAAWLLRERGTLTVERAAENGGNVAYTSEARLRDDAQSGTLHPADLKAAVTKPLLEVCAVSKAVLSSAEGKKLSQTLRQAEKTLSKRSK
- ASSAY_TEXT: Trypanosoma cruzi tyrosyl tRNA synthetase (TcYRS) _High Tyrosine SOP; also: in the data most compounds retested in dose-response had high values
- Format: functional
- Set-up: scale not given: direction of the effect not stated beside the values
- EXPERIMENTAL_PARAMETERS: 30 µM
The following compounds are shown together with reported Percent Effect values.
Provide only the numeric value, understood in %.

COc1ccc(CNCc2ccnc(N3CCCCC3)c2)cc1OC = 3.35

Problem: I'm curious: which Percent Effect was measured for COC(=O)N1C[C@H]2CC[C@@H]1CN(Cc1cscn1)C2 tested on Tyrosyl-tRNA synthetase, putative (Trypanosoma cruzi (strain CL Brener)) (UniProt Q4DSP6)?
Solution: 5.85

Problem: Lookup Cc1csc(N2CCCN(C(=O)c3c(C)oc(C)c3C)CC2)n1
Solution: 7.89

Problem: Lookup CC[C@H](C)Nc1nccc(-c2cnc3sc(C)c(C)n3c2=O)n1
Solution: -3.68

Problem: Lookup CN1CCC/C1=N\S(=O)(=O)c1ccc(NC(=O)CCc2cccs2)cc1
Solution: 7.84

Problem: Lookup O=c1cc(Cn2cncn2)nc2n1CCCN(CC1CC1)C2
Solution: 3.68
